- assayTarget: nicotinamide phosphoribosyltransferase (NAMPT) (Homo sapiens, UniProt P43490)
- Sequence (P43490 whole entry): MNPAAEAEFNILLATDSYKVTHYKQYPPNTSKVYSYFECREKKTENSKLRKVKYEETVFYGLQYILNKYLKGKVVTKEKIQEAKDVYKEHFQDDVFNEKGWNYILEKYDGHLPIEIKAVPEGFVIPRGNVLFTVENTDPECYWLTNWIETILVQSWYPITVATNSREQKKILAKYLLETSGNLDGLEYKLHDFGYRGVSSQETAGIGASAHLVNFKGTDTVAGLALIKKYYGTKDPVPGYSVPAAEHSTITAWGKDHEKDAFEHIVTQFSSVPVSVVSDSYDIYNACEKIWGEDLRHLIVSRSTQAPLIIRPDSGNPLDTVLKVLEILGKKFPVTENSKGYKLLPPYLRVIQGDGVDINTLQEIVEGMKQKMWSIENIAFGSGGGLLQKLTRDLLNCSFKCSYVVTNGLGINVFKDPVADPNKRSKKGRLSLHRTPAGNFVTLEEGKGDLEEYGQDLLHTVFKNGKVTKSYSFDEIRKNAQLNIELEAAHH
propertyMeasured: Ki (nM)
Report the value in nM with no unit label.

# query: Ki of entry O=[N+]([O-])c1ccc(O[C@@H]2O[C@H](COP(=O)(O)O)[C@@H](O)[C@H]2O)cc1 2500

* * *

- assayTarget: nicotinamide phosphoribosyltransferase (NAMPT) (Homo sapiens)
propertyMeasured: pKd
# pKd = -log10(concentration in molar units)

# query: pKd of entry NC(=O)c1ccc[n+]([C@@H]2O[C@H](COP(=O)([O-])O)[C@@H](O)[C@H]2O)c1 [NMN, nicotinamide mononucleotide] 4.47
